Here the recorded inhibition is given for each entry.
Molecular target: Low molecular weight protein-tyrosine phosphatase A (Mycobacterium tuberculosis) (UniProt P9WIA1)
Experiment: Inhibition of Mycobacterium tuberculosis PTP-A using p-nitrophenyl phosphate as substrate at 25 uM measured for 10 mins by spectrofluorimetry
PROPERTY_MEASURED: inhibition (%)

SMILES_REPRESENTATION | UNIT | READOUT_VALUE
O=C(/C=C/c1cccc2ccccc12)c1ccc2c(c1)OCO2 | % | 8
O=C(/C=C/c1cccc2ccccc12)c1ccc2ccccc2c1 | % | 43
O=C(/C=C/c1cccc(C(F)(F)F)c1)c1ccc2ccccc2c1 | % | 24
N#Cc1ccc(/C=C/C(=O)c2ccc3ccccc3c2)cc1 | % | 21
COc1cc(OC)c(C(=O)/C=C/c2ccc3ccccc3c2)cc1OC | % | 22
COc1cc(/C=C/C(=O)c2ccc3c(c2)OCO3)cc(OC)c1OC | % | 5
COc1cc(OC)cc(C(=O)/C=C/c2ccc3ccccc3c2)c1 | % | 0
COc1ccc(C(=O)/C=C/c2ccc(OCc3ccccc3)c(OC)c2)c(OC)c1 | % | 40
O=C(/C=C/c1cccc(Br)c1)c1ccc2ccccc2c1 | % | 0
O=C(O)c1ccc(/C=C/C(=O)c2ccc3ccccc3c2)cc1 | % | 9
O=C(/C=C/c1ccc(Cl)cc1)c1ccc2ccccc2c1 | % | 13

###

Experiment: Solubility of the compound
Assay type: physicochemical

SMILES_REPRESENTATION | solubility
CCCCOc1ccc(/C=C/C(=O)c2ccc3c(c2)OCO3)cc1 | soluble
COc1ccc2nc(Cl)c(/C=C/C(=O)c3ccc4ccccc4c3)cc2c1 | soluble
COc1ccc(/C=C/C(=O)c2ccc3c(c2)OCO3)cc1 | soluble
COc1ccc(/C=C/C(=O)c2ccc3c(c2)OCO3)cc1OC | soluble
O=C(/C=C/c1c(Cl)cccc1Cl)c1ccc2c(c1)OCO2 | soluble
COc1cccc(OC)c1/C=C/C(=O)c1ccc2c(c1)OCO2 | soluble
COc1cc(/C=C/C(=O)c2ccc3ccccc3c2)ccc1OCc1ccccc1 | soluble
COc1ccc(OC)c(C(=O)/C=C/c2ccc(OCc3ccccc3)c(OC)c2)c1 | soluble
O=C(/C=C/c1ccc(Cl)cc1Cl)c1ccc2c(c1)OCO2 | soluble
O=C(/C=C/c1cccc(Br)c1)c1ccc2c(c1)OCO2 | soluble
COc1cc(/C=C/C(=O)c2ccc3c(c2)OCO3)ccc1O | soluble
O=C(/C=C/c1ccccc1[N+](=O)[O-])c1ccc2c(c1)OCO2 | soluble
O=C(/C=C/c1cccc(C(F)(F)F)c1)c1ccc2ccccc2c1 | soluble
COc1cc(OC)c(/C=C/C(=O)c2ccc3c(c2)OCO3)c(OC)c1 | soluble
COc1cccc(C(=O)/C=C/c2ccc3ccccc3c2)c1 | soluble
COc1cc(/C=C/C(=O)c2ccc(Cl)s2)ccc1OCc1ccccc1 | soluble
N#Cc1ccc(/C=C/C(=O)c2ccc3c(c2)OCO3)cc1 | soluble
O=C(/C=C/c1cc2ccccc2nc1Cl)c1ccc2c(c1)OCO2 | soluble
O=C(/C=C/c1ccc(Cl)c(Cl)c1)c1ccc2c(c1)OCO2 | soluble
O=C(O)c1ccc(/C=C/C(=O)c2ccc3ccccc3c2)cc1 | soluble
O=C(/C=C/c1ccc2c(c1)OCO2)c1cccc([N+](=O)[O-])c1 | soluble
O=C(/C=C/c1ccc2c(c1)OCO2)c1ccc2ccccc2c1 | soluble
O=C(/C=C/c1ccc(-c2ccccc2[N+](=O)[O-])o1)c1ccc2ccccc2c1 | soluble

###

Listed below: pIC50 values for each entry.
Molecular target: Low molecular weight protein-tyrosine phosphatase A (Mycobacterium tuberculosis)
Assay: Inhibition of Mycobacterium tuberculosis PTP-A using p-nitrophenyl phosphate as substrate measured for 10 mins by spectrofluorimetry
pIC50: −log10 of the molar value.

SMILES_REPRESENTATION | MEASUREMENT_QUALIFIER | pIC50
O=C(/C=C/c1ccc2c(c1)OCO2)c1cccc([N+](=O)[O-])c1 | = | 4.35
Cc1ccc(/C=C/C(=O)c2ccc3ccccc3c2)o1 | = | 2.99
O=C(/C=C/c1ccc2ccccc2c1)c1ccc(Br)cc1 | < | 4.30
O=C(/C=C/c1ccc(C(F)(F)F)cc1)c1ccc2ccccc2c1 | = | 3.48
COc1cc(/C=C/C(=O)c2ccc(-n3ccnc3)cc2)ccc1OCc1ccccc1 | = | 3.99
COc1ccc(/C=C/C(=O)c2ccc3c(c2)OCO3)c(OC)c1OC | = | 4.08

###

Target: Low molecular weight protein-tyrosine phosphatase A (Mycobacterium tuberculosis) (UniProt P9WIA1)
Sequence (whole entry): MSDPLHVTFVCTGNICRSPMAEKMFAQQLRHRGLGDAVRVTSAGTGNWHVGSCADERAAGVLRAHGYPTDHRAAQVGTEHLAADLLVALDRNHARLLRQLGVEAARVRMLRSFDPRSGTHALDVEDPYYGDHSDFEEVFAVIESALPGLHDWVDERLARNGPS
Assay: Inhibition of Mycobacterium tuberculosis PTP-A using p-nitrophenyl phosphate as substrate at 25 uM measured for 10 mins by spectrofluorimetry
Each entry below carries its recorded inhibition.
PROPERTY_MEASURED: inhibition (%)

SMILES_REPRESENTATION | PROPERTY_MEASURED | READOUT_VALUE
O=C(/C=C/c1cccc(Cl)c1)c1ccc2ccccc2c1 | inhibition | 7
COc1ccc2nc(Cl)c(/C=C/C(=O)c3ccc4c(c3)OCO4)cc2c1 | inhibition | 29
COc1ccc(OC)c(C(=O)/C=C/c2ccc(OCc3ccccc3)c(OC)c2)c1 | inhibition | 12
COc1cc(/C=C/C(=O)c2ccc3ccccc3c2)ccc1OCc1ccccc1 | inhibition | 5
O=C(/C=C/c1ccc(Cl)c(Cl)c1)c1ccc2c(c1)OCO2 | inhibition | 35
O=C(/C=C/c1ccc(F)cc1)c1ccc2c(c1)OCO2 | inhibition | 0
COc1cccc(/C=C/C(=O)c2ccc3ccccc3c2)c1 | inhibition | 10
O=C(/C=C/c1ccccc1Cl)c1ccc2ccccc2c1 | inhibition | 0
O=C(/C=C/c1ccc(Cl)cc1Cl)c1ccc2ccccc2c1 | inhibition | 10
COc1ccc(OC)c(/C=C/C(=O)c2ccc3ccccc3c2)c1 | inhibition | 22
O=C(/C=C/c1cccs1)c1ccc2c(c1)OCO2 | inhibition | 7

###

Assay: Solubility of the compound
Assay type: physicochemical
PROPERTY_MEASURED: solubility

SMILES_REPRESENTATION | READOUT_VALUE
COc1ccc2nc(Cl)c(/C=C/C(=O)c3ccc4c(c3)OCO4)cc2c1 | soluble
O=C(/C=C/c1ccccc1Cl)c1ccc2ccccc2c1 | soluble
O=C(/C=C/c1ccccc1F)c1ccc2ccccc2c1 | soluble
O=C(/C=C/c1ccc2ccccc2c1)c1ccc[nH]1 | soluble
COc1cc(/C=C/C(=O)c2ccc3c(c2)OCO3)cc(OC)c1OC | soluble
Cc1ccc(C(=O)/C=C/c2ccc3ccccc3c2)cc1 | soluble
COc1cc(OC)cc(C(=O)/C=C/c2ccc3ccccc3c2)c1 | soluble
O=C(/C=C/c1ccccc1Cl)c1ccc2c(c1)OCO2 | soluble
O=C(/C=C/c1ccc(F)cc1)c1ccc2c(c1)OCO2 | soluble
COc1ccc(/C=C/C(=O)c2ccc3ccccc3c2)c(OC)c1OC | soluble
O=C(/C=C/c1cccc([N+](=O)[O-])c1)c1ccc2ccccc2c1 | soluble

###

Biological target: UniProt P9WIA1
Assay: Inhibition of Mycobacterium tuberculosis PTP-A using p-nitrophenyl phosphate as substrate at 25 uM measured for 10 mins by spectrofluorimetry
Catalogue of inhibition values

SMILES_REPRESENTATION | inhibition / %
COc1ccc(/C=C/C(=O)c2ccc3c(c2)OCO3)cc1OC | 19
O=C(/C=C/c1cccs1)c1ccc2ccccc2c1 | 15
O=C(/C=C/c1ccc2c(c1)OCO2)c1cccc([N+](=O)[O-])c1 | 26
COc1cc(OC)c(/C=C/C(=O)c2ccc3ccccc3c2)c(OC)c1 | 49
O=C(/C=C/c1ccccc1[N+](=O)[O-])c1ccc2ccccc2c1 | 10
COc1ccc(OC)c(/C=C/C(=O)c2ccc3c(c2)OCO3)c1 | 10
CN(C)c1ccc(/C=C/C(=O)c2ccc3c(c2)OCO3)cc1 | 10
O=C(/C=C/c1ccc2c(c1)OCO2)c1ccc2c(c1)OCO2 | 6
Cc1ccc(/C=C/C(=O)c2ccc3c(c2)OCO3)o1 | 40
COc1cccc(OC)c1/C=C/C(=O)c1ccc2c(c1)OCO2 | 4
Cc1ccc(/C=C/C(=O)c2ccc3c(c2)OCO3)cc1 | 14

###

Molecular target: Tyrosine-protein phosphatase non-receptor type 1 (Homo sapiens, UniProt P18031)
Sequence (P18031 whole entry): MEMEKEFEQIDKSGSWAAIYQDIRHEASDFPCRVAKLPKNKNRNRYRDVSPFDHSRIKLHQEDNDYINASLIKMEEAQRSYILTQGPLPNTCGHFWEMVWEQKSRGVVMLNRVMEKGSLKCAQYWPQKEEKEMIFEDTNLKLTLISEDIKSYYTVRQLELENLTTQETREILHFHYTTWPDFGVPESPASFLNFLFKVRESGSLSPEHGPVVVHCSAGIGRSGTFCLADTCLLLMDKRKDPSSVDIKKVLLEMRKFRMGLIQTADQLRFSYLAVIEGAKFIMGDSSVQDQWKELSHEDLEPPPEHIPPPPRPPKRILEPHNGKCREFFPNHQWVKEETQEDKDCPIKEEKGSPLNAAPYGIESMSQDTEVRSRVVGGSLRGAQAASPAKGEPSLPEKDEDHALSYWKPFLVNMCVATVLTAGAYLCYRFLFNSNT
pIC50: −log10 of the molar value.
PROPERTY_MEASURED: pIC50

SMILES_REPRESENTATION | READOUT_VALUE
O=C(/C=C/c1ccc2c(c1)OCO2)c1cccc([N+](=O)[O-])c1 | 3.97
O=C(O)c1ccc(/C=C/C(=O)c2ccc3ccccc3c2)cc1 | 2.51
O=C(/C=C/c1ccc2ccccc2c1)c1ccc(Cl)s1 | 4.00
O=C(/C=C/c1ccc2ccccc2c1)c1ccc(Br)cc1 | 4.54
O=C(/C=C/c1ccc2c(c1)OCO2)c1ccc([N+](=O)[O-])cc1 | 4.64
COc1ccc(C(=O)/C=C/c2ccc(OCc3ccccc3)c(OC)c2)c(OC)c1 | 3.58

The reported numbers originate from ChEMBL document CHEMBL1944567.
